Test system: HIVIIIB
Test: Antiviral Activity: anti-HIV activity in MT4 cells infected with HIVIIIB (MTT)
Assay type: cell-based
Details: Human immunodeficiency virus 1, 120 h, MOI 0.003, 5 days, n=four duplicate determinations
pEC50: −log10 of the molar value.
RECORDED METRIC: pEC50

The cases that follow already have their pEC50 on record.
SAMPLE SMILES	MEASURED TARGET	OBSERVED VALUE
Cc1cccc(C)c1OCC(=O)N[C@@H](Cc1ccccc1)[C@@H](O)C[C@H](Cc1ccccc1)NC(=O)O[C@@H]1CCS(=O)(=O)C1(C)C	HIVIIIB	6.35
Cc1cccc(C)c1N(C)CC(=O)N[C@@H](Cc1ccccc1)C[C@H](O)[C@H](Cc1ccccc1)NC(=O)O[C@H]1CO[C@H]2OCC[C@H]21	HIVIIIB	5.54
CC(=O)Oc1ccc(C(=O)N[C@@H](Cc2ccccc2)C[C@H](O)[C@H](Cc2ccccc2)NC(=O)O[C@H]2CO[C@H]3OCC[C@H]32)cc1	HIVIIIB	6.84

I = CC(C)[C@H](NC(=O)N(C)Cc1cncs1)C(=O)N[C@@H](Cc1ccccc1)C[C@H](O)[C@H](Cc1ccccc1)NC(=O)O[C@H]1CO[C@H]2OCC[C@H]21
II = Nc1ccc(C(=O)N[C@@H](Cc2ccccc2)[C@@H](O)C[C@H](Cc2ccccc2)NC(=O)O[C@H]2CO[C@H]3OCC[C@H]32)c(Cl)c1
III = Cc1cc(N(C)C)cc(C)c1OCC(=O)N[C@@H](Cc1ccccc1)C[C@H](O)[C@H](Cc1ccccc1)NC(=O)O[C@H]1CO[C@H]2OCC[C@H]21
# ascending order, key=pEC50 In plain terms: list the labels in the order you were asked to.
I, III, II

###

Experiment: Cytotoxicity in uninfected MT4 cells (MTT)
Format: cell-based
Conditions: human, 5 days, n=four duplicate determinations, read-out: CTC50 (50% cytotoxicity concentration)
The entries below are paired with their reported CC50 at 120 h.
The answer is to be given in µM; state only the numeric part.

Record summary for Cc1cc(N)cc(C)c1OCC(=O)N[C@@H](Cc1ccccc1)[C@@H](O)C[C@H](Cc1ccccc1)NC(=O)O[C@H]1CO[C@H]2OCC[C@H]21 [Example 3] : reported CC50 at 120 h = 61

Record summary for Cc1cccc(CO)c1OCC(=O)N[C@@H](Cc1ccccc1)C[C@H](O)[C@H](Cc1ccccc1)NC(=O)O[C@H]1CO[C@H]2OCC[C@H]21 [Example 7] : reported CC50 at 120 h = 82

###

Biological target: HIV-1 protease (Human immunodeficiency virus type 1 group M subtype B, UniProt P04585)
Experiment: Fluorogenic Assay for Screening Inhibitors of HIV Protease
Details: pH 4.5
RECORDED METRIC: inhibition at 0.0005 µM (%)

MOLECULE	RECORDED METRIC	OBSERVED VALUE
O=C(N[C@@H](Cc1ccccc1)C[C@H](O)[C@H](Cc1ccccc1)NC(=O)OC1COC2OCCC12)OC1COC2OCCC12 (stereo partly drawn) [Example 41]	inhibition at 0.0005 µM	53
CC(C)c1nc(CN(C)C(=O)N[C@H](C(=O)N[C@@H](Cc2ccccc2)C[C@H](O)[C@H](Cc2ccccc2)NC(=O)OC2COC3OCCC23)C(C)C)cs1 (stereo partly drawn) [Example 34]	inhibition at 0.0005 µM	52
O=C(N[C@@H](Cc1ccccc1)C[C@H](O)[C@H](Cc1ccccc1)NC(=O)c1ccccc1)O[C@H]1CO[C@H]2OCC[C@H]21 [Example 68]	inhibition at 0.0005 µM	65

###

Test: Cytotoxicity in uninfected MT4 cells (MTT)
Type: cell-based
Conditions: human, 5 days, n=four duplicate determinations, read-out: CTC50 (50% cytotoxicity concentration)
The entries below are paired with their reported CC50 at 120 h.

The cases that follow already have their CC50 at 120 h on record.
SAMPLE SMILES	OBSERVED VALUE
Cc1cccc(C)c1N(C)CC(=O)N[C@@H](Cc1ccccc1)C[C@H](O)[C@H](Cc1ccccc1)NC(=O)O[C@H]1CO[C@H]2OCC[C@H]21	18 µM
O=C(N[C@@H](Cc1ccccc1)C[C@H](O)[C@H](Cc1ccccc1)NC(=O)O[C@H]1CO[C@H]2OCC[C@H]21)O[C@H]1CO[C@H]2OCC[C@H]21	> 100 µM

// next entry
Record summary for "Cc1cccc(C)c1OCC(=O)N[C@@H](Cc1ccccc1)[C@@H](O)C[C@H](Cc1ccccc1)NC(=O)O[C@@H]1CCSC1(C)C" : reported CC50 at 120 h = > 100 µM

###

Target: HIV-1 protease (Human immunodeficiency virus type 1 group M subtype B)
Assay: Fluorogenic Assay for Screening Inhibitors of HIV Protease
Conditions: pH 4.5
RECORDED METRIC: inhibition at 0.0005 µM (%)

SAMPLE SMILES	MEASURED TARGET	QUANTITY UNIT	inhibition at 0.0005 µM
CC(C)[C@@H](NC(=O)N(C)Cc1cncs1)C(=O)N[C@@H](Cc1ccccc1)C[C@H](O)[C@H](Cc1ccccc1)NC(=O)O[C@H]1CO[C@H]2OCC[C@H]21	HIV-1 protease (Human immunodeficiency virus type 1 group M subtype B)	%	72
O=C(N[C@@H](Cc1ccccc1)C[C@H](O)[C@H](Cc1ccccc1)NC(=O)c1cccc(O)c1)O[C@H]1CO[C@H]2OCC[C@H]21	HIV-1 protease (Human immunodeficiency virus type 1 group M subtype B)	%	68
Nc1ccc(Cl)c(C(=O)N[C@@H](Cc2ccccc2)[C@@H](O)C[C@H](Cc2ccccc2)NC(=O)O[C@H]2CO[C@H]3OCC[C@H]32)c1	HIV-1 protease (Human immunodeficiency virus type 1 group M subtype B)	%	70

###

Experiment: Cytotoxicity in uninfected MT4 cells (MTT)
Type: cell-based
Details: human, 5 days, n=four duplicate determinations, read-out: CTC50 (50% cytotoxicity concentration)
The entries below are paired with their reported CC50 at 120 h.

Record summary for "CC(C)[C@@H](NC(=O)OCc1cncs1)C(=O)N[C@@H](Cc1ccccc1)C[C@H](O)[C@H](Cc1ccccc1)NC(=O)O[C@H]1CO[C@H]2OCC[C@H]21" : reported CC50 at 120 h = > 100 µM

Record summary for CC(C)c1nc(CN(C)C(=O)NC(C(=O)NC(Cc2ccccc2)CC(O)C(Cc2ccccc2)NC(=O)OC2COC3OCCC23)C(C)C)cs1 (stereo not drawn) : reported CC50 at 120 h = > 100 µM

Record summary for "Cc1cccc(C)c1OCC(=O)N[C@@H](Cc1ccccc1)[C@@H](O)C[C@H](Cc1ccccc1)NC(=O)O[C@H]1CO[C@H]2OCC[C@H]21" : reported CC50 at 120 h = > 100 µM
